Conditions: in methanol, 313.15 K
attributeMeasured: solubility (mole fraction)

smilesString	attributeMeasured	result
O=C1c2cccc(Cl)c2C(=O)N1c1ccccc1	solubility (mole fraction)	0.000478

###

Conditions: in ethyl acetate, 313.15 K
attributeMeasured: solubility (mole fraction)

smilesString	quantitativeReadout
O=C1c2cccc(Cl)c2C(=O)N1c1ccccc1	0.00525

###

Details: in isobutanol, 293.15 K

smilesString	solubility (mole fraction)
O=C1c2cccc(Cl)c2C(=O)N1c1ccccc1	0.000149

###

Conditions: in 1,4-dioxane, 288.15 K

smilesString	solubility (mole fraction)
O=C1c2cccc(Cl)c2C(=O)N1c1ccccc1	0.00825

###

Conditions: in acetic acid, 298.15 K

smilesString	solubility (mole fraction)
O=C1c2cccc(Cl)c2C(=O)N1c1ccccc1	0.00145

###

Conditions: in acetic acid, 288.15 K
attributeMeasured: solubility (mole fraction)

smilesString	quantitativeReadout
O=C1c2cccc(Cl)c2C(=O)N1c1ccccc1	0.000923

###

Conditions: in isopropanol, 300.65 K
attributeMeasured: solubility (mole fraction)

smilesString	attributeMeasured	quantitativeReadout
O=C1c2cccc(Cl)c2C(=O)N1c1ccccc1	solubility (mole fraction)	0.000151

###

Conditions: in n-butanol, 290.65 K
attributeMeasured: solubility (mole fraction)

smilesString	attributeMeasured	result
O=C1c2cccc(Cl)c2C(=O)N1c1ccccc1	solubility (mole fraction)	0.000204

###

Details: in isopropanol, 290.65 K
attributeMeasured: solubility (mole fraction)

smilesString	attributeMeasured	quantitativeReadout
O=C1c2cccc(Cl)c2C(=O)N1c1ccccc1	solubility (mole fraction)	8.36e-05

###

Details: in acetonitrile, 303.15 K

smilesString	solubility (mole fraction)
O=C1c2cccc(Cl)c2C(=O)N1c1ccccc1	0.00332

###

Settings: in acetic acid, 300.65 K

smilesString	solubility (mole fraction)
O=C1c2cccc(Cl)c2C(=O)N1c1ccccc1	0.00159

###

Settings: in acetic acid, 293.15 K
attributeMeasured: solubility (mole fraction)

smilesString	quantitativeReadout
O=C1c2cccc(Cl)c2C(=O)N1c1ccccc1	0.00116

###

Conditions: in acetic acid, 318.15 K
attributeMeasured: solubility (mole fraction)

smilesString	attributeMeasured	quantitativeReadout
O=C1c2cccc(Cl)c2C(=O)N1c1ccccc1	solubility (mole fraction)	0.00299

###

Conditions: in acetone, 305.65 K
attributeMeasured: solubility (mole fraction)

smilesString	quantitativeReadout
O=C1c2cccc(Cl)c2C(=O)N1c1ccccc1	0.00551

###

Details: in acetic acid, 308.15 K
attributeMeasured: solubility (mole fraction)

smilesString	attributeMeasured	quantitativeReadout
O=C1c2cccc(Cl)c2C(=O)N1c1ccccc1	solubility (mole fraction)	0.00206

###

Details: in acetonitrile, 313.15 K

smilesString	solubility (mole fraction)
O=C1c2cccc(Cl)c2C(=O)N1c1ccccc1	0.0047

###

Settings: in n-propanol, 298.15 K
attributeMeasured: solubility (mole fraction)

smilesString	attributeMeasured	quantitativeReadout
O=C1c2cccc(Cl)c2C(=O)N1c1ccccc1	solubility (mole fraction)	0.000311

###

Details: in 1,4-dioxane, 315.65 K
attributeMeasured: solubility (mole fraction)

smilesString	attributeMeasured	quantitativeReadout
O=C1c2cccc(Cl)c2C(=O)N1c1ccccc1	solubility (mole fraction)	0.0204

###

Conditions: in acetonitrile, 315.65 K
attributeMeasured: solubility (mole fraction)

smilesString	quantitativeReadout
O=C1c2cccc(Cl)c2C(=O)N1c1ccccc1	0.00514

###

Details: in n-butanol, 318.15 K

smilesString	solubility (mole fraction)
O=C1c2cccc(Cl)c2C(=O)N1c1ccccc1	0.00074
